- measured on: human recombinant PDE4A (Homo sapiens, UniProt P27815)
- Sequence (P27815 whole entry): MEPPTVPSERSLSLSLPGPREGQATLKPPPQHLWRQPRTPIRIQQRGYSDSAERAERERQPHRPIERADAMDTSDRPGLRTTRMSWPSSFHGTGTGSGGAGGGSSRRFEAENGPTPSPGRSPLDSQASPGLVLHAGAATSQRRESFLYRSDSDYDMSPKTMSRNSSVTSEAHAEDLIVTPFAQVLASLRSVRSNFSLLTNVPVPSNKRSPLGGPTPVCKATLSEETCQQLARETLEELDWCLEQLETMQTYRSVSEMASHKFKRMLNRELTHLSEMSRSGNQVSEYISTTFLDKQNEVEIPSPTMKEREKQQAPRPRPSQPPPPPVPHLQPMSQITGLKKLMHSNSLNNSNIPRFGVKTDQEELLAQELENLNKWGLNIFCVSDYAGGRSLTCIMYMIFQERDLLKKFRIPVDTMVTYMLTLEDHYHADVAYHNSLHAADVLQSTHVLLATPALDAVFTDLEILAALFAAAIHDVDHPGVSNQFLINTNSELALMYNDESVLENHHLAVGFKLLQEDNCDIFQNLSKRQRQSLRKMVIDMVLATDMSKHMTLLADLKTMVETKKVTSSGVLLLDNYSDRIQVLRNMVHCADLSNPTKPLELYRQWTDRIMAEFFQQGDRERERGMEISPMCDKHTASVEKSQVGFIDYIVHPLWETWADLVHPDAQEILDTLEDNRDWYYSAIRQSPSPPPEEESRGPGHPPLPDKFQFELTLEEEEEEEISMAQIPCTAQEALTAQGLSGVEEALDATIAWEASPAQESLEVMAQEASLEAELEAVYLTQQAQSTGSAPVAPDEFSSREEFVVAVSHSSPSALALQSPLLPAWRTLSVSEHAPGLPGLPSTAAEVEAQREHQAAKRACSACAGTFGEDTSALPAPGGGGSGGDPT
- assay protocol: Hydrolysis of 1 uM cAMP by human recombinant PDE4A
- reported conditions: human recombinant PDE4A, 1 uM cAMP; read-out: Isozyme - IC50, A
readout name: IC50

# compound, readout name, reported value
rows = [
    ("COc1ccc([C@H](C)NC(=O)c2cccnc2Oc2ccc(F)cc2)cc1 [(+) Enantiomer]", "IC50", "600 nM"),
    ("COc1ccc([C@@H](C)NC(=O)c2cccnc2Oc2ccc(F)cc2)cc1 [(−) Enantiomer]", "IC50", "600 nM"),
]

----------
Measured melting point, listed per entry.

# molecule, melting point
rows = [
    ("CC(C)(O)c1ccc(CNC(=O)c2cccnc2Oc2ccc3c(c2)OCO3)cc1", "118 to 120 °C"),
    ("Cc1ccc(CNC(=O)c2cccnc2Oc2cncc(Cl)c2)cc1", "119 to 121 °C"),
    ("O=C(NCc1ccc(Cl)s1)c1cccnc1Oc1cncc(Cl)c1", "125 to 127 °C"),
    ("CCc1n[nH]c2ccc(C(NC(=O)c3cccnc3Oc3cccc(C#N)c3)C3CCCCC3)cc12 (stereo not shown)", "56 to 58 °C"),
    ("O=C(NCc1ccc(O)cc1)c1cccnc1Oc1cccnc1", "156 to 158 °C"),
    ("CC(C)(O)c1cc(Cl)c(CNC(=O)c2cccnc2Oc2cncc(Cl)c2)s1", "72 to 74 °C"),
    ("O=C(NCc1ccc(C(=O)C(F)(F)F)cc1)c1cccnc1Oc1cccnc1", "134 to 136 °C"),
    ("CC(C)(C)C(=O)Oc1ccc(CNC(=O)c2cccnc2Oc2ccc(F)cc2)cc1", "91 to 93 °C"),
    ("CC(C)(O)c1ccc(CC(=O)Nc2cccnc2Oc2cccnc2)cc1", "122 to 124 °C"),
    ("O=C1CCC(CNC(=O)c2cccnc2Oc2ccc(F)cc2)CC1", "157 to 159 °C"),
    ("CC(=O)c1ccc(CNC(=O)c2cccnc2Oc2cccnc2)s1", "201 to 203 °C"),
    ("O=C(NCc1ccc(C2(O)CCC2)cc1)c1cccnc1Oc1cccnc1", "116 to 118 °C"),
    ("O=C(Nc1ccc2[nH]c(=O)oc2c1)c1cccnc1Oc1ccc(F)cc1", "289 to 291 °C"),
    ("CC(=O)c1cccc(Oc2ncccc2C(=O)NCc2ccc(S(N)(=O)=O)cc2)c1", "162 to 164 °C"),
    ("O=C(NCc1ccc(OCC(F)(F)F)cc1)c1cccnc1Oc1cccnc1", "98 to 100 °C"),
    ("CC(C)(O)c1ccc(CNC(=O)c2cccnc2Oc2ccc(F)cc2)c(F)c1", "93 to 94 °C"),
    ("CC(C)(O)c1ccc(CNC(=O)c2cccnc2Oc2cccc(C#N)c2)cc1", "97 to 99 °C"),
    ("COc1cccc(Oc2ncccc2C(=O)NCc2ccc(S(N)(=O)=O)cc2)c1", "142 to 143 °C"),
    ("O=C(NCC1CCC(O)CC1)c1cccnc1Oc1ccc(F)cc1 (stereo not shown)", "110 to 112 °C"),
]

----------
The reader will find reported melting point values listed item by item below.

# molecule, melting point
rows = [
    ("CC(NC(=O)c1cccnc1Oc1cncc(Cl)c1)c1ccc(Cl)s1 (stereo not shown)", "110 to 112 °C"),
    ("O=C(NCc1cc2ccccc2s1)c1cccnc1Oc1cccnc1", "93 to 95 °C"),
    ("O=C(COc1ccccc1Cl)c1cccnc1Oc1ccc(F)cc1", "92 to 93 °C"),
    ("COc1cccc(Oc2ncccc2C(=O)NCc2ccc(C(C)(C)O)cc2)c1", "69 to 71 °C"),
    ("CC(C)(O)c1ccc(CNC(=O)c2cccnc2Oc2ccc(F)cc2)o1", "88 to 90 °C"),
    ("N#Cc1cccc(Oc2ncccc2C(=O)NCc2ccc(S(N)(=O)=O)cc2)c1", "179 to 180 °C"),
    ("CCCCCNC(=O)c1cccnc1Oc1cccnc1", "61 to 62 °C"),
    ("CS(=O)(=O)Nc1ccc(CNC(=O)c2cccnc2Oc2ccc(F)cc2)cc1", "107 to 109 °C"),
    ("CC(C)(O)c1cc(Cl)c(CNC(=O)c2cccnc2Oc2cccnc2)s1", "74 to 76 °C"),
    ("O=C(NCC1CC1)c1cccnc1Oc1cncc(Cl)c1", "105 to 107 °C"),
    ("Cc1noc2ccc(Oc3ncccc3C(=O)NCc3ccc(C(C)(C)O)cc3)cc12", "128 to 130 °C"),
    ("O=C(CCc1ccccc1)c1cccnc1Oc1ccc(F)cc1", "82 to 83 °C"),
    ("O=C(CCc1cc(F)cc(F)c1)c1cccnc1Oc1ccc(F)cc1", "69 to 70 °C"),
    ("CC(C)(O)c1ccc(CC(=O)Nc2cccnc2Oc2ccc(F)cc2)cc1", "135 to 137 °C"),
    ("C[C@@H](NC(=O)c1cccnc1Oc1ccc(F)cc1)c1cccs1", "60 to 62 °C"),
    ("CC(C)(O)[C@H]1CC[C@H](CNC(=O)c2cccnc2Oc2ccc(F)cc2F)CC1", "92 to 94 °C"),
    ("CC(C)(O)c1ccc(CNC(=O)c2cccnc2Oc2ccc3c(c2)OCO3)c(F)c1", "94 to 95 °C"),
    ("O=C(O)c1cc2cc(CNC(=O)c3cccnc3Oc3ccc(F)cc3)ccc2[nH]1", "236 to 238 °C"),
    ("O=C(NCc1ccc([N+](=O)[O-])cc1)c1cccnc1Oc1ccc(F)cc1", "155 to 157 °C"),
]

----------
- measured on: human recombinant PDE4B (Homo sapiens)
- Sequence (Q07343 whole entry): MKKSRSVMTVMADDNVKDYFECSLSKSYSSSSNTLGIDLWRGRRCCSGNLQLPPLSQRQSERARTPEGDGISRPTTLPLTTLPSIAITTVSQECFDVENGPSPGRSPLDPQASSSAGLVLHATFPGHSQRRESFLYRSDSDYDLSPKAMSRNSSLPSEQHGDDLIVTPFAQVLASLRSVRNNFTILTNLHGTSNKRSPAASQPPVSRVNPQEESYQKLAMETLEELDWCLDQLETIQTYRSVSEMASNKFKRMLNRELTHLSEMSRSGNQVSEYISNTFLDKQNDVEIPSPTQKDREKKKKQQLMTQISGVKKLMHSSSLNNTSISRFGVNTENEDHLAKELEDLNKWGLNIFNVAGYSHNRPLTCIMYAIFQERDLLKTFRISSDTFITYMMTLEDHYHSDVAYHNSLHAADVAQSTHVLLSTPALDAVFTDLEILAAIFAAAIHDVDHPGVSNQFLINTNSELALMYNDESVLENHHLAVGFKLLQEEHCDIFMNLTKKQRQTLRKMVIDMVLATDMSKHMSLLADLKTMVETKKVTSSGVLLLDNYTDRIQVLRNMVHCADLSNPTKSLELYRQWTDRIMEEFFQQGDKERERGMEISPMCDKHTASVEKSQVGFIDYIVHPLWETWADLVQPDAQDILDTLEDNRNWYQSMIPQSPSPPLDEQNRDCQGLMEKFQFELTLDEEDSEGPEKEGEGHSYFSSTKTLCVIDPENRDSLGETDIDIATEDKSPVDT
- assay protocol: Hydrolysis of 1 uM cAMP by human recombinant PDE4B
- reported conditions: human recombinant PDE4B, 1 uM cAMP; read-out: Isozyme - IC50, B
pIC50: −log10 of the molar value.

# compound, pIC50
measured = [
    ("COc1ccc([C@H](C)NC(=O)c2cccnc2Oc2ccc(F)cc2)cc1 [(+) Enantiomer]", 6.22),
    ("COc1ccc([C@@H](C)NC(=O)c2cccnc2Oc2ccc(F)cc2)cc1 [(−) Enantiomer]", 6.52),
]

----------
Where a name gives a salt, the structure may show the parent alone.
readout name: melting point

# compound, reported value
measured = [
    ("NS(=O)(=O)c1ccc(CNC(=O)c2cccnc2Oc2ccc(F)cc2)cc1", "222 to 223 °C"),
    ("O=C(CCc1ccc(F)cc1)c1cccnc1Oc1cccnc1", "62 to 64 °C"),
    ("CC(NC(=O)c1cccnc1Oc1ccc(F)cc1)c1ccc(Cl)s1 (single isomer, unassigned; (+)) [Example 141]", "78 to 80 °C"),
    ("O=C(NCc1ccncc1)c1cccnc1Oc1cccnc1", "142 to 144 °C"),
    ("CC(=O)c1cccc(Oc2ncccc2C(=O)NCc2ccc(C(C)(C)O)cc2)c1", "52 to 54 °C"),
    ("CC(O)c1ccc(CNC(=O)c2cccnc2Oc2cccnc2)s1 (single isomer, unassigned; (+)) [Example 205]", "88 to 90 °C"),
    ("C[C@H](NC(=O)c1cccnc1Oc1cccnc1)c1cccs1 (as salt: HCl)", "196 to 198 °C"),
]

----------
# test smiles, melting point
measured = [
    ("O=C(NCc1cc2ccccc2s1)c1cccnc1Oc1ccc(F)cc1", "109 to 111 °C"),
    ("O=C(NCc1nccs1)c1cccnc1Oc1cccnc1", "94 to 96 °C"),
    ("CC(C)(O)c1ccc(CNC(=O)c2cccnc2Oc2cccc(S(C)(=O)=O)c2)cc1", "51 to 53 °C"),
    ("O=C(NCc1cc(Cl)cs1)c1cccnc1Oc1ccc(F)cc1", "99 to 101 °C"),
]

----------
Each entry below carries its recorded melting point.

# compound, melting point
rows = [
    ("CC(=O)c1ccc(CNC(=O)c2cccnc2Oc2ccc(F)cc2)cc1 [Example 285]", "106 to 108 °C"),
    ("O=C(NCc1c(F)cccc1Cl)c1cccnc1Oc1ccc(F)cc1 [Example 5]", "115 to 118 °C"),
    ("Cc1cc(CNC(=O)c2cccnc2Oc2cccc([N+](=O)[O-])c2)cc(C)c1O [Example 108]", "128 to 130 °C"),
]
